- System: SR leukemia
- ASSAY NAME: NCI tumour cell line growth inhibition, 48 h
MEASURED PARAMETER: TGI

C/C(=N\NC(N)=S)c1ccc(C)cc1C | > 100 µM
COc1cccc(C2c3cc4c(cc3OC(N3CCCC3)C2C)OCO4)c1OC (stereo unspecified) | 15.2 µM
O=c1c2cc(I)ccc2[nH]c(=S)n1Cc1ccccc1 | > 100 µM
CCCCCCCCCCCCCCC1OC(=O)c2ccccc21 (stereo unspecified) | > 100 µM
c1ccc(N=c2snc(-c3ccccc3)s2)cc1 | > 100 µM
CSc1c(C(=O)Nc2ccc(C)cc2)c(N)[nH]c(=O)c1C#N | > 100 µM
CCC[C@H](C)[C@H]1NC(=O)[C@@H](NC(=O)[C@@H](CC(C)C)N(C)C(=O)C2CCCN2C(=O)[C@H](C)O)[C@@H](C)OC(=O)[C@H](CC(C)C)N(C)C(=O)[C@@H]2CCCN2C(=O)[C@H](CC(C)C)NC(=O)[C@@H](C)C(=O)[C@H](C(C)C)OC(=O)C[C@@H]1O (stereo partly specified) | 0.0422 µM
Cc1cccc(N(CCC#N)S(=O)(=O)c2ccccc2)c1 | > 100 µM
O=C1CCC(NC(=O)c2ccccc2)C(=O)N1 (stereo unspecified) | > 100 µM
COc1cc2c(c(O)c1C)C(=O)C(Cl)=CC2=O | 4.37 µM
O=C1N[C@@H]2c3c(csc3Br)C(=O)[C@@H]2O1 | 74.1 µM
O=C1CC(c2ccc([N+](=O)[O-])cc2)C2(C(=O)NC(=S)NC2=O)C(c2ccc([N+](=O)[O-])cc2)C1 (stereo unspecified) | > 100 µM
CC(C)c1c(P(=O)(c2ccccc2)c2ccccc2)n(C)c2ccccc12 | > 100 µM
CN1C(=O)CN(NC(=O)C2=C(O)c3ccc(Br)cc3S(=O)(=O)N2)C1=S | > 100 µM
O=c1nc2c(c(-c3cccc(Cl)c3)[nH]1)COC/C2=C\c1cccc(Cl)c1 | > 100 µM
COC(=O)C1CC(C=[N+](C)C)=C(SC)N1 (stereo unspecified) | > 100 µM
O=[n+]1c(CBr)c(CBr)n([O-])c2ccccc21 | > 100 µM
CN1CCN(Cc2ccc(NC(=O)c3cncc(C#Cc4cnc(N)c5ccccc45)c3)cc2C(F)(F)F)CC1 | 6.63 µM
Cc1cccc2c3ccc4c(c3n(C)c12)C(=O)C=CC4=O | > 100 µM
CC1=C2c3ccccc3N(C(=O)/C=C/C(=O)O)[C@H]2[C@H]2C(=O)OC(=O)[C@H]2C1 | > 10 µM
CC1CC(C#N)=C2NCCCCN2C1=O (stereo unspecified) | > 100 µM

----------
Collected TGI values appear next to each entry.
- System: 786-0 renal
- ASSAY NAME: NCI tumour cell line growth inhibition, 48 h
MEASURED PARAMETER: TGI

O=C(O)Cc1c[nH]c2ccc(F)cc12 | > 100 µM
CN=C1NC(=O)/C(=C/c2ccc3ncccc3c2)S1 | > 25 µM
CCN(CCCN(CC)C(=O)N[C@@H](Cc1ccccc1)C(=O)NC)C(=O)N[C@@H](Cc1ccccc1)C(=O)NC | > 100 µM
COC1C=CC23c4cc5c(cc4C(O)OC2CN(C)C3C1)OCO5 (stereo unspecified) | 11 µM
O=C1NC(=O)C2C(=O)NC(=O)C1C2(c1ccccc1)c1ccc(Cl)cc1 (stereo unspecified) | > 100 µM
OCc1c(-c2cccc3ccccc23)sc(-c2cccc3ccccc23)c1CO | 27.4 µM

----------
- Test system: HOP-92 NSCLC
- ASSAY NAME: NCI tumour cell line growth inhibition, 48 h
Collected log10 of TGI values appear next to each entry.
MEASURED PARAMETER: log10 of TGI (log10 of the value in µM)

O=C(Cc1ccc(/C=C/C(=O)c2ncc[nH]2)cc1)Nc1ccc(Cl)cc1 | 1.32
O=C(O[C@H](/C=C/c1ccccc1)P1(=O)N(Cc2ccccc2)[C@@H]2CCCC[C@H]2N1Cc1ccccc1)c1ccccc1 | 0.83
CC[n+]1ccc2c(c1)C(=O)c1nccc3c1c-2nc1ccccc13 | 0.85
C=CCCCC12CCCc3cccc(c31)NC2=O (stereo not given) | 1.50
CCOC(=O)c1c(SCCN2CCCC2)n(-c2ccccc2)c(=S)n(-c2ccccc2)c1=O | 0.65
CCN1CCN(c2nc(NCCNc3ccnc4cc(Cl)ccc34)c3ccccc3n2)CC1 | 0.40
O=C(O)c1cc(S(=O)(=O)N=NC=C2c3ccccc3N(O)c3ccccc32)ccc1O | 1.48

----------
- System: COLO 205 colon
- ASSAY NAME: NCI tumour cell line growth inhibition, 48 h; in the data active = GI50 below about 0.43 µM; inactive = the rest
Classes used: active, inactive

CCN1CCN(c2nc(NCCNc3ccnc4cc(Cl)ccc34)c3ccccc3n2)CC1 | inactive
COC(=O)[C@@H](C)C[C@H](Cc1ccccc1)NC(=O)c1nc([C@@H](C[C@H](C(C)C)N(C)C(=O)[C@@H](NC(=O)[C@H]2CCCN2C)C(C)C)OC(C)=O)sc1C | active
ClCc1ccccc1CSc1ncnc2nc[nH]c12 | inactive
O=C(Cc1ccc(/C=C/C(=O)c2ncc[nH]2)cc1)Nc1ccc(Cl)cc1 | inactive
O=C1c2ccccc2C(=O)c2c1ccc1[nH]c(CCl)nc21 | inactive

----------
Collected TGI values appear next to each entry.
- Test system: SN12C renal
- ASSAY NAME: NCI tumour cell line growth inhibition, 48 h
MEASURED PARAMETER: TGI

CC(C)CCNC(=O)c1ccc(CNC(=O)/C=C/c2ccc(OCc3ccccc3)cc2)cc1 | > 100 µM
CCOC(=O)C1C(=O)CC(O)(c2ccccc2)C(C(=O)OCC)C1c1ccc(OC)cc1 (centres undefined) | > 100 µM
O=C1C(Cl)N(c2ccccc2)C1c1c[nH]c2ccccc12 (centres undefined) | > 100 µM
O=C1/C(=C/c2ccccc2)CN(C(=O)Oc2ccc(Cl)cc2)C/C1=C\c1ccccc1 | 3.88 µM
Cc1cccc(C(C)(C)C)c1NC(=O)C(=O)Cc1nc2ccccc2s1 | > 100 µM
O=C1OC[C@@H]2Cc3c([nH]c4ccccc34)[C@@H](c3ccc(O)cc3)N12 | > 89.7 µM
CC(=O)/C(=C/n1c(=S)sc2ccccc21)C(=O)Nc1ccccc1C | > 100 µM
CCCCn1/c(=N/C(=S)N(C)C)ss/c1=N\C(=S)N(C)C | > 100 µM
Cc1ccc(C2=Nc3c(c(C)nn3-c3ccccc3)N=C(C(=O)O)C2)cc1 | > 10 µM

----------
- Test system: 786-0 renal
- ASSAY NAME: NCI tumour cell line growth inhibition, 48 h; in the data active means GI50 below about 0.43 µM; inactive means the rest
Where a SMILES comes first, the peptide text is derived from it. [ ]: non-standard residue; d: D form. The star is where a group is joined. Bn2Val = CC(C)[C@@H](C(=O)*)N(Cc1ccccc1)Cc1ccccc1; NH(3,4-diMeO-benzyl) = COc1ccc(CN*)cc1OC; NMeV = CN[C@H](C(=O)O)C(C)C; dNMeA = CN[C@H](C)C(=O)O
Classes used: active, inactive

COc1ccc(CNC(=O)[C@@H](C)N(C)C(=O)[C@@H]2CCCN2C(=O)[C@H](C(C)C)N(C)C(=O)[C@@H](NC(=O)[C@H](C(C)C)N(Cc2ccccc2)Cc2ccccc2)C(C)C)cc1OC (Bn2Val-V[NMeV]P[dNMeA]-{NH(3,4-diMeO-benzyl)}) | inactive
CNC(=O)c1cc(Oc2ccc3c(c2)sc2nc(-c4ccc(N)cc4)cn23)ccn1 | inactive
COC(=O)[C@@H](C)C[C@H](Cc1ccccc1)NC(=O)c1nc([C@@H](C[C@H](C(C)C)N(C)C(=O)[C@@H](NC(=O)[C@H]2CCCN2C)C(C)C)OC(C)=O)sc1C | active
COC(=O)c1c2c(c(C)[n+]([O-])c1C)C(=O)C=CC2=O | inactive
COc1ccc(-n2cc(-c3ccc(OC)c(OC)c3)[nH]c2=S)cc1Cl | inactive
N#Cc1nc(-c2ccc(F)cc2)oc1S(=O)(=O)N1CCOCC1 | inactive
NS(=O)(=O)c1ccc(-n2nc(-c3ccc(Br)cc3)ccc2=O)cc1 | inactive
C[C@@H]1Cc2c([nH]c3ccccc23)[C@@H](c2c(F)cc(/C=C/C(=O)O)cc2F)N1CC(C)(C)F | inactive
O=C1c2ccccc2-c2c1c1cc3c(cc1c(=O)n2CCCCl)OCO3 | inactive
CN(C)CCNc1nc2ccccc2c2[nH]c3ccccc3c12 | active
COc1ccc(CN2CCCC(C(=O)c3ccc(C(F)(F)F)cc3)C2)c(O)c1 (configuration not stated) | inactive
CC(=O)c1ccc(N(/C=C/C(=O)C(F)(F)F)CC(=O)c2ccc(Cl)c(Cl)c2)cc1 | inactive
CCCCCCCCCCCCOC1C(CNCC2OC3OC(C)(C)OC3C2NC(=O)Nc2ccc(C(=O)OCC)cc2)OC2OC(C)(C)OC21 (configuration not stated) | inactive
Clc1cccc(NC=Nc2ccc(-c3nc4ccccc4s3)cc2)c1 | inactive
O=C(Cc1ccc(/C=C/C(=O)c2ncc[nH]2)cc1)Nc1ccc(Cl)cc1 | inactive
S=C1NCCN1C1=Nc2ccccc2CO1 | inactive
O=C(/C=C(\[O-])c1ccccc1)CCCCCCC(=O)/C=C(\[O-])c1ccccc1.O=C(/C=C(\[O-])c1ccccc1)CCCCCCC(=O)/C=C(\[O-])c1ccccc1.O=C(/C=C(\[O-])c1ccccc1)CCCCCCC(=O)/C=C(\[O-])c1ccccc1.[La+3].[La+3] | inactive
